These entries and their values trace back to paper PMC12583661.

Molecular target: UniProt:A0A0P0FP54
Sequence (A0A0P0FP54 28-1433 limits assumed): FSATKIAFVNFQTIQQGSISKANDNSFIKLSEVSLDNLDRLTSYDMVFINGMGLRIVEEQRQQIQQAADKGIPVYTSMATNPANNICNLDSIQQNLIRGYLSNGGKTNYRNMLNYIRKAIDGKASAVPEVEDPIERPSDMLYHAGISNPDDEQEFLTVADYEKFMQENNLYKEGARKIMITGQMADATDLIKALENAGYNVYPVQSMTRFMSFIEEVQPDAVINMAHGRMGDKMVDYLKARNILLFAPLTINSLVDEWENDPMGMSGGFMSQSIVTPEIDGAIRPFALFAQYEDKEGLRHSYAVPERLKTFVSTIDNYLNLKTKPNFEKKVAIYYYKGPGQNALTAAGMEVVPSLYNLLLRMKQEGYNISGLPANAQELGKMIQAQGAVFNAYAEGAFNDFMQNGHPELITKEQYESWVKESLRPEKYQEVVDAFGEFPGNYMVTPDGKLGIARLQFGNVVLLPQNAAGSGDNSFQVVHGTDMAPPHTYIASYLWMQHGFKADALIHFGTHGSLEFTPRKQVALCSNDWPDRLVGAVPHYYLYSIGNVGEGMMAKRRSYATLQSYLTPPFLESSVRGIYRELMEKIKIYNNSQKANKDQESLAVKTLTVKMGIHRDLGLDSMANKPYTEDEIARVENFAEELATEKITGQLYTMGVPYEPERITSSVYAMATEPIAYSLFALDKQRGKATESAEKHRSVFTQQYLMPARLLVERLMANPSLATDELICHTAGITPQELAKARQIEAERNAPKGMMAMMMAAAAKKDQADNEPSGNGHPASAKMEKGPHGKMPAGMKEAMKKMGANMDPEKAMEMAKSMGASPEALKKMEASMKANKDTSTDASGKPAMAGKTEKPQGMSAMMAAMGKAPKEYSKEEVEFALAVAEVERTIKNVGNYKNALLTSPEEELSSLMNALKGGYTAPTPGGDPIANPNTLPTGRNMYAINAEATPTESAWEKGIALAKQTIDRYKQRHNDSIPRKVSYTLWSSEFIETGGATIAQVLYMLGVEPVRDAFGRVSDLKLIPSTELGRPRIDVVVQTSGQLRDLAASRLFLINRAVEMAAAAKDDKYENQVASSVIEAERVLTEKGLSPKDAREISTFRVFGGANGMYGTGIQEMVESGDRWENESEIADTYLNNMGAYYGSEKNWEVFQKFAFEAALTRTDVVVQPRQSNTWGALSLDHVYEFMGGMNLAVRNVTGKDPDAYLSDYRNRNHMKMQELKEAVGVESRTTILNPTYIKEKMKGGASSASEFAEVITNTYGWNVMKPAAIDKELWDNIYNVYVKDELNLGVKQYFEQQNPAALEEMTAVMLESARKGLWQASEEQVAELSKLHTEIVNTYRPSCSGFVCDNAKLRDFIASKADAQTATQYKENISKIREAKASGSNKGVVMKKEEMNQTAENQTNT
parameter: Kd (µM)

compound	parameter	reading
C=CC1=C(C)C2=Cc3c(C=C)c(C)c4[n]3[Fe][n]3c(c(C)c(CCC(=O)O)c3=CC3=NC(=C4)C(C)=C3CCC(=O)O)=CC1=N2 [heme]	Kd	6

----------
biological target: HmuS (Bacteroides thetaiotaomicron, UniProt A0A0P0FP54, H538A); construct: soluble HmuS without its predicted N- and C-terminal membrane-anchoring helices; assay: UV/vis hemin titration of purified mutant; no turnover to PPIX

smiles	Kd [nM]
C=CC1=C(C)C2=Cc3c(C=C)c(C)c4[n]3[Fe][n]3c(c(C)c(CCC(=O)O)c3=CC3=NC(=C4)C(C)=C3CCC(=O)O)=CC1=N2	1400
